Tested on: Staphylococcus aureus H4
Assay: MIC / antibiotic susceptibility; also: key: R: strain resistant to antibiotic concerned; S: strain sensitive to antibiotic concerned; L strain with intermediate resistance to antibiotic concerned
Assay type: cell-based

smiles_data | Susceptibility of strain to antibiotic
NCC[C@H](O)C(=O)N[C@@H]1C[C@H](N)[C@@H](O[C@H]2O[C@H](CN)[C@@H](O)[C@H](O)[C@H]2O)[C@H](O)[C@H]1O[C@H]1O[C@H](CO)[C@@H](O)[C@H](N)[C@H]1O | R
NC[C@H]1O[C@H](O[C@H]2[C@H](O)[C@@H](O[C@H]3O[C@H](CO)[C@@H](O)[C@H](N)[C@H]3O)[C@H](N)C[C@@H]2N)[C@H](N)C[C@@H]1O | R
CCN1CCN(C(=O)N[C@@H](C(=O)N[C@@H]2C(=O)N3[C@@H]2SC(C)(C)[C@@H]3C(=O)O)c2ccccc2)C(=O)C1=O | R

----------
System: Staphylococcus aureus H4
Assay: MIC / antibiotic susceptibility; also: key: R: strain resistant to antibiotic concerned; S: strain sensitive to antibiotic concerned; L strain with intermediate resistance to antibiotic concerned
Format: cell-based
measured_parameter: Susceptibility of strain to antibiotic

molecule | measured_parameter | value_measured
CN[C@H](CC(C)C)C(=O)N[C@H]1C(=O)N[C@@H](CC(N)=O)C(=O)N[C@H]2C(=O)N[C@H]3C(=O)N[C@H](C(=O)N[C@H](C(=O)O)c4cc(O)cc(O)c4-c4cc3ccc4O)[C@H](O)c3ccc(c(Cl)c3)Oc3cc2cc(c3O[C@@H]2O[C@H](CO)[C@@H](O)[C@H](O)[C@H]2O[C@H]2C[C@](C)(N)[C@H](O)[C@H](C)O2)Oc2ccc(cc2Cl)[C@H]1O [Vancomycin] | Susceptibility of strain to antibiotic | S
CC[C@H]1OC(=O)[C@H](C)[C@@H](O[C@H]2C[C@@](C)(OC)[C@@H](O)[C@H](C)O2)[C@H](C)[C@@H](O[C@@H]2O[C@H](C)C[C@H](N(C)C)[C@H]2O)[C@](C)(O)C[C@@H](C)C(=O)[C@H](C)[C@@H](O)[C@]1(C)O [Erythromycin] | Susceptibility of strain to antibiotic | S
C[C@H]1c2cccc(O)c2C(O)=C2C(=O)[C@]3(O)C(O)=C(C(N)=O)C(=O)[C@@H](N(C)C)[C@@H]3[C@@H](O)[C@@H]21 [Doxycyclin] | Susceptibility of strain to antibiotic | S
